- Target: PDC-3 (Pseudomonas aeruginosa, UniProt P24735, T105A)
- Sequence (P24735 27-397 T105A): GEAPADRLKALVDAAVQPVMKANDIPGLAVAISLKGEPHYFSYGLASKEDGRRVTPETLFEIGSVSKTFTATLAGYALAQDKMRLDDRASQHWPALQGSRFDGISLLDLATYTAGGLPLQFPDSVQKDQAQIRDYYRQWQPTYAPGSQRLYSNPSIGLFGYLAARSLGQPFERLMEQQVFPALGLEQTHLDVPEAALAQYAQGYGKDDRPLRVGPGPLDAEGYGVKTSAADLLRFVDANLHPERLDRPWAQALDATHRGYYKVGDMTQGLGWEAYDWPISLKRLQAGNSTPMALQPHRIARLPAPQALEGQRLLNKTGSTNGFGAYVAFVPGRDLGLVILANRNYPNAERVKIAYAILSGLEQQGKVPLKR
- Test protocol: IC50 assay, nitrocefin hydrolysis, PDC-3 (SBL)
List of IC50 values.
I only need the number, in µM, no unit after it.

Cc1ccc(S(=O)(=O)NCc2cn(CB(O)O)nn2)cc1 [Cmp 1a]    9

*Q* IC50 for O=C(Cc1ccccc1)NCc1cn(CB(O)O)nn1 [Cmp 1d] ?
*A* 23

*Q* IC50 for O=C(NCc1cn(CB(O)O)nn1)Nc1ccccc1 [Cmp 1e] ?
*A* 10

*Q* IC50 for O=C(NCc1cn(CB(O)O)nn1)c1ccccc1 [Cmp 1c] ?
*A* 26
